Values compiled from patent US20240417370A1.

Would you mind telling me the reported Serum IgG @ 0.3 mg/kg of each entry?
Tested on: human IgG in mouse serum
experiment: Immunoglobulin G (IgG) mRNA in vivo evaluation using lipid nanoparticle compositions
Set-up: species or system mice
condition notes: LNP-formulated lipid, 0.3 mg mRNA/kg, tail vein injection, μg IgG/mL serum 24 hours after administration
# do not omit the unit; it follows the number

Q) Respond only with Serum IgG @ 0.3 mg/kg recorded for CCCCCCCCCCN(CCCCCCCCN(CCCCCCCC(=O)N(CCCCCCCCCC)CCCCCCCCCC)[C@H]1CC[C@H](O)CC1)C(=O)CCCCCCCCC
A) 16.24 ± 2.93 µg/mL

Q) Respond only with Serum IgG @ 0.3 mg/kg recorded for CCCCCCCCCCCCN(CCCCCC)C(=O)CCCCCCCN(CCCCCCCC(=O)N(CCCCCCCCCC)CCCCCCCCCC)[C@H]1CC[C@@H](O)CC1
A) 52.9 ± 17.00 µg/mL

Q) Respond only with Serum IgG @ 0.3 mg/kg recorded for CCCCCCCCCCN(CCCCCCCCCC)C(=O)CCCCCCCN(CCCCCCCC(=O)N(CCCCCCCCCC)CCCCCCCCCC)C1CCC(O)CC1 (stereo not drawn)
A) 35.77 ± 4.50 µg/mL

Q) Respond only with Serum IgG @ 0.3 mg/kg recorded for CCCCCCCCCCCCN(CCCCCCCC)C(=O)CCCCCCCN(CCCCCCCC(=O)N(CCCCCCCCCC)CCCCCCCCCC)[C@H]1CC[C@@H](O)CC1
A) 72.2 ± 14.87 µg/mL

Q) Respond only with Serum IgG @ 0.3 mg/kg recorded for CCCCCCCCCCN(CCCCCCCCCC)C(=O)CCCCCCCN(CCCCCCCC(=O)N(CCCCCCCCCC)CCCCCCCCCC)[C@H]1C[C@H](O)C1
A) 44.52 ± 9.89 µg/mL

Q) Respond only with Serum IgG @ 0.3 mg/kg recorded for CCCCCCCCCCN(CCCCCCCCCC)C(=O)CCCCCCCN(CCCCCCCC(=O)N(CCCCCCCCCC)CCCCCCCCCC)C[C@H]1C[C@@H]1CO (racemic) [(rac)-(1RS, 2RS) I-45]
A) 10.95 ± 4.31 µg/mL

----------
Tested on: human IgG in mouse serum
experiment: Immunoglobulin G (IgG) mRNA in vivo evaluation using lipid nanoparticle compositions
Parameters: species or system mice
condition notes: LNP-formulated lipid, 1.0 mg mRNA/kg, tail vein injection, μg IgG/mL serum 24 hours after administration
Would you mind telling me the reported Serum IgG @ 1.0 mg/kg of each entry?

Q) Respond only with Serum IgG @ 1.0 mg/kg recorded for CCCCCCCCCCN(CCCCCCCCCC)C(=O)C(F)CCCCCCN(CCCCCCC(F)C(=O)N(CCCCCCCCCC)CCCCCCCCCC)CC[C@H]1C[C@@H](O)C1 (stereo partly shown)
A) 267.70 ± 45.90 µg/mL

Q) Respond only with Serum IgG @ 1.0 mg/kg recorded for CCCCCCCCCCN(CCCCCCCCCC)C(=O)CCCCCCCN(CCCCCCCC(=O)N(CCCCCCCCCC)CCCCCCCCCC)[C@H]1CC[C@](C)(O)CC1
A) 105.77 ± 19.44 µg/mL

Q) Respond only with Serum IgG @ 1.0 mg/kg recorded for CCCCCCCCCCN(CCCCCCCCCC)C(=O)CCCCCCCN(CCCCCCCC(=O)N(CCCCCCCCCC)CCCCCCCCCC)[C@H]1C[C@H](O)C1
A) 215.61 ± 28.80 µg/mL

Q) Respond only with Serum IgG @ 1.0 mg/kg recorded for CCCCCCCCCCN(CCCCCCCCCC)C(=O)CCCCCCCN(CCCCCCCC(=O)N(CCCCCCCCCC)CCCCCCCCCC)[C@@H]1CC[C@@H](O)C1 (racemic) [(rac)-(1RS, 3RS) I-14]
A) 45.96 ± 11.03 µg/mL

Q) Respond only with Serum IgG @ 1.0 mg/kg recorded for CCCCCCCCCCN(CCCCCCCCCC)C(=O)CCCCCCCN(CCCCCCCC(=O)N(CCCCCCCCCC)CCCCCCCCCC)[C@@H]1CCC[C@H]1O
A) 92.5 ± 20.18 µg/mL

Q) Respond only with Serum IgG @ 1.0 mg/kg recorded for CCCCCCCCCCN(CCCCCCCCCC)C(=O)C(F)CCCCCCN(CCCCCCC(F)C(=O)N(CCCCCCCCCC)CCCCCCCCCC)[C@H]1CC[C@H](O)CC1 (stereo partly shown)
A) 161.09 ± 11.20 µg/mL

Q) Respond only with Serum IgG @ 1.0 mg/kg recorded for CCCCCCCCCCN(CCCCCCCCCC)C(=O)CCCCCCCN(CCCCCCCC(=O)N(CCCCCCCCCC)CCCCCCCCCC)[C@@H]1CCC[C@@H](O)C1
A) 178.14 ± 33.27 µg/mL
